assay: Solubility in pH 7.4 buffer by HPLC-based UV detection assay; assay type: physicochemical
METRIC NAME: solubility
Write the quantity with the unit trailing the number.

Would you mind telling me what solubility value was observed for O=S(=O)(Nc1ccc(Sc2nc3cc(Cl)ccc3s2)c(Cl)c1)c1ccc(C(F)(F)F)cc1Cl ?
2 µM
